- assay_info: biodistribution in A431-CCK2R/A431-mock xenografted BALB/c nude mice
- Assay type: in vivo
- details: female, athymic BALB/c nude, mouse, heart, iv, 20 pmol, total radioactivity, 20 pmol, 12 h p.i.; read-out: uptake in heart
Non-standard residues stand in square brackets, D forms with d. Residues, ends and D or L forms follow the SMILES beside them. *: point of attachment. DOTA = O=C(O)CN1CCN(CC(=O)O)CCN(CC(=O)*)CCN(CC(=O)O)CC1; 1Nal = N[C@@H](Cc1cccc2ccccc12)C(=O)O; NMeNle = CCCC[C@H](NC)C(=O)O
Assign tissue uptake at 12 h to each entry below.
Kindly provide the numeric value in %ID/g only, without the unit symbol.

Inquiry: Reported tissue uptake at 12 h for CCCC[C@@H](C(=O)N[C@@H](CC(=O)O)C(=O)N[C@@H](Cc1cccc2ccccc12)C(N)=O)N(C)C(=O)[C@H](Cc1c[nH]c2ccccc12)NC(=O)CNC(=O)[C@H](Cc1ccc(O)cc1)NC(=O)[C@@H]1CCCN1C(=O)[C@@H](CCC(=O)O)NC(=O)CN1CCN(CC(=O)O)CCN(CC(=O)O)CCN(CC(=O)O)CC1 [[^177Lu]Lu-1, metal not drawn] ({DOTA}-[dE]PYGW[NMeNle]D[1Nal]-NH2) : what is it?
Reply text: 0.05

Inquiry: Record request: tissue uptake at 12 h value, item CCCC[C@@H](C(=O)N[C@@H](CC(=O)O)C(=O)N[C@@H](Cc1cccc2ccccc12)C(N)=O)N(C)C(=O)[C@H](Cc1c[nH]c2ccccc12)NC(=O)CNC(=O)[C@@H]1CCCN1C(=O)[C@H](Cc1ccc(O)cc1)NC(=O)[C@@H](CCC(=O)O)NC(=O)CN1CCN(CC(=O)O)CCN(CC(=O)O)CCN(CC(=O)O)CC1 [[^177Lu]Lu-2, metal not drawn] ({DOTA}-[dE]YPGW[NMeNle]D[1Nal]-NH2)
Reply text: 0.05
